Max Emision listing for selected molecules.
assay: Absorption and emission spectra of fluoresceins and SDMA conjugates (Example 33); assay type: physicochemical; details: PBS buffer

Incoming: Param item = O=C(O)c1ccccc1-c1c2ccc(=O)cc-2oc2cc(O)ccc12 [Fl, fluorescein] ; retrieve measured Max Emision.
Outgoing: 515 nm

Incoming: Now try CNC(=NCCCC(N)C(=O)NCc1c(O)c(F)cc2c(-c3ccccc3C(=O)O)c3cc(F)c(=O)cc-3oc12)NC (stereo not drawn) [SDMA-DFF] .
Outgoing: 525 nm

Incoming: Now try CNC(=NCCCC(N)C(=O)NCc1c(O)c(Cl)cc2c(-c3ccccc3C(=O)O)c3cc(Cl)c(=O)cc-3oc12)NC (stereo not drawn) [SDMA-DCF] .
Outgoing: 535 nm

Incoming: Now try O=C1OC2(c3cc(F)c(O)cc3Oc3cc(O)c(F)cc32)c2ccccc21 [DFF, 2′,7′-difluorofluorescien] .
Outgoing: 515 nm

Incoming: Now try O=C1OC2(c3cc(Cl)c(O)cc3Oc3cc(O)c(Cl)cc32)c2ccccc21 [DCF, 2′,7′-dichlorofluorescien] .
Outgoing: 525 nm

Incoming: Now try C/N=C(\NC)NCCC[C@@H](N)C(=O)NCc1c(O)ccc2c(-c3ccccc3C(=O)O)c3ccc(=O)cc-3oc12 (stereo in doubt) [SDMA-Fl] .
Outgoing: 525 nm

###

test system: anti-T4-Mab; experiment: Fluorescence of T3 tracers and anti-T4-Mab in the presence of T4 (Example 20); format: binding; details: PBS, tracer and antibody equimolar
Measured Quantity: fluorescence quenching by anti-T4-Mab

O=C(O)c1ccccc1-c1c2ccc(=O)cc-2oc2c(CNC(Cc3cc(I)c(Oc4ccc(O)c(I)c4)c(I)c3)C(=O)O)c(O)ccc12 (stereo not shown) :: quenched
O=C(O)c1cc(NC(=S)NC(Cc2cc(I)c(Oc3ccc(O)c(I)c3)c(I)c2)C(=O)O)ccc1-c1c2ccc(=O)cc-2oc2cc(O)ccc12 (stereo not shown) :: not quenched
O=C(O)c1ccccc1-c1c2ccc(=O)cc-2oc2c(CNCCNC(Cc3cc(I)c(Oc4ccc(O)c(I)c4)c(I)c3)C(=O)O)c(O)ccc12 (stereo not shown) :: quenched
O=C(NC(Cc1cc(I)c(Oc2ccc(O)c(I)c2)c(I)c1)C(=O)O)c1ccc(-c2c3ccc(=O)cc-3oc3cc(O)ccc23)c(C(=O)O)c1 (stereo not shown) :: not quenched
